Conditions: in water, 318.15 K
metric.name: solubility (mole fraction)
Write the value as a bare number.

INPUT: Recorded solubility (mole fraction) of COc1c(O)cc2c(c1O)[C@@H]1O[C@H](CO)[C@@H](O)[C@H](O)[C@H]1OC2=O , please.
OUTPUT: 0.000185

* * *

Conditions: in water, 303.15 K
metric.name: solubility (mole fraction)
Write the value as a bare number.

INPUT: Recorded solubility (mole fraction) of COc1c(O)cc2c(c1O)[C@@H]1O[C@H](CO)[C@@H](O)[C@H](O)[C@H]1OC2=O , please.
OUTPUT: 9.88e-05

* * *

Details: in DMSO, 313.15 K
metric.name: solubility (mole fraction)
Write the value as a bare number.

INPUT: Recorded solubility (mole fraction) of COc1c(O)cc2c(c1O)[C@@H]1O[C@H](CO)[C@@H](O)[C@H](O)[C@H]1OC2=O , please.
OUTPUT: 0.0212
